Each recorded value in this set is attributed to paper PMC7384330.

Target: muscarinic acetylcholine receptor M2 (Homo sapiens)
Sequence (P08172 1-466): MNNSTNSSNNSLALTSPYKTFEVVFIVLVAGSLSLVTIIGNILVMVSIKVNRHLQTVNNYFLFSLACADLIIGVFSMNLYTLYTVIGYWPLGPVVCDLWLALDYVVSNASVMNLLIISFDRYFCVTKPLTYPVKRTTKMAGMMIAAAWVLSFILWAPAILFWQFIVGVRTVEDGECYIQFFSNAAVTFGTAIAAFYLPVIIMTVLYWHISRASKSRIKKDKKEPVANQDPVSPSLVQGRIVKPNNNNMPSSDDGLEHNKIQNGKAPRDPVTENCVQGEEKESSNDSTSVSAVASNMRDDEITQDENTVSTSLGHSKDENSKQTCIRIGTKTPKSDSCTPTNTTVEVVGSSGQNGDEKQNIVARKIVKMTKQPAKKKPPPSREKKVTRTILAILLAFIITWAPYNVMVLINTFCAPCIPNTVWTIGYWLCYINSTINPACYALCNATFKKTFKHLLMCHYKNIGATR
Assay: NIMH PDSP GPCR receptor binding screen, M2
pKi: −log10 of the molar value.
METRIC NAME: pKi

The molecule listed as Cc1cc(C(=O)N2Cc3cnn(C)c3Nc3ccccc32)ccc1CNC(=O)N1CCC[C@H]1C(=S)N1CCCN(C)CC1 [TC-OT-39] shows pKi equal to < 6.00

---

biological target: muscarinic acetylcholine receptor M5 (Homo sapiens, UniProt P08912)
Sequence (P08912 whole entry): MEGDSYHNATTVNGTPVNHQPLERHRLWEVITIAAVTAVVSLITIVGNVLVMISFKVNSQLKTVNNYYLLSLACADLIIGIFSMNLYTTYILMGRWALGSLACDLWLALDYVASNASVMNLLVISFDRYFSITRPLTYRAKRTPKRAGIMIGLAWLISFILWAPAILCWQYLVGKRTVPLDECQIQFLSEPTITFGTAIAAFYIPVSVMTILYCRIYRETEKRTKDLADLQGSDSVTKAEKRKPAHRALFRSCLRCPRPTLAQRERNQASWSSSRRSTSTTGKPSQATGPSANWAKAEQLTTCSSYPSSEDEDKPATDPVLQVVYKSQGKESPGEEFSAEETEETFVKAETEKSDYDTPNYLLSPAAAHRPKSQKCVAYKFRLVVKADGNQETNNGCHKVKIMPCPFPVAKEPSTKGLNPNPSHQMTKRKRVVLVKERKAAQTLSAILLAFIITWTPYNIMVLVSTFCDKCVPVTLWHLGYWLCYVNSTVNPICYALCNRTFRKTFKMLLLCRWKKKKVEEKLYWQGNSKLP
pKi: −log10 of the molar value.
METRIC NAME: pKi

The molecule listed as `Cc1cc(C(=O)N2Cc3cnn(C)c3Nc3ccccc32)ccc1CNC(=O)N1CCC[C@H]1C(=S)N1CCCN(C)CC1` shows pKi equal to < 6.00

---

target: OXTR (β-arrestin recruitment) (Homo sapiens); test: PathHunter eXpress β-Arrestin GPCR Kit, enzyme fragment complementation assay; type: cell-based
METRIC NAME: EC50

The compound listed as `Cc1cc(C(=O)N2Cc3cnn(C)c3Nc3ccccc32)ccc1CNC(=O)N1CCC[C@H]1C(=S)N1CCCN(C)CC1` shows EC50 equal to 480 nM

---

target: UniProt:P08173
Sequence (P08173 whole entry): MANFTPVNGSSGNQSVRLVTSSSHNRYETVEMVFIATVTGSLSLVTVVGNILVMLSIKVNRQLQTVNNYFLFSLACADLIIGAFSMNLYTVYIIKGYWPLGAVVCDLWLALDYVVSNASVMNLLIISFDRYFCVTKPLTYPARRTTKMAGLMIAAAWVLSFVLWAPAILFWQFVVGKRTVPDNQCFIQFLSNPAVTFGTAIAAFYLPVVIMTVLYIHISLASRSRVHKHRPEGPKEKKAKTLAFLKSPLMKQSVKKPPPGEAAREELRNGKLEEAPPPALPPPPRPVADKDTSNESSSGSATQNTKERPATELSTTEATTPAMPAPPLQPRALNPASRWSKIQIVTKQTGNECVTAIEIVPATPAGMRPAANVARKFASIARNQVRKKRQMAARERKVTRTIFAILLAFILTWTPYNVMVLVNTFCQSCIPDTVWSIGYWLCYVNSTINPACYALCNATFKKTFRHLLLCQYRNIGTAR
METRIC NAME: Ki

The compound listed as `Cc1cc(C(=O)N2Cc3cnn(C)c3Nc3ccccc32)ccc1CNC(=O)N1CCC[C@H]1C(=S)N1CCCN(C)CC1` shows Ki equal to > 1000 nM

---

Biological target: human OXTR (Homo sapiens, UniProt P30559)
Sequence (P30559 1-389): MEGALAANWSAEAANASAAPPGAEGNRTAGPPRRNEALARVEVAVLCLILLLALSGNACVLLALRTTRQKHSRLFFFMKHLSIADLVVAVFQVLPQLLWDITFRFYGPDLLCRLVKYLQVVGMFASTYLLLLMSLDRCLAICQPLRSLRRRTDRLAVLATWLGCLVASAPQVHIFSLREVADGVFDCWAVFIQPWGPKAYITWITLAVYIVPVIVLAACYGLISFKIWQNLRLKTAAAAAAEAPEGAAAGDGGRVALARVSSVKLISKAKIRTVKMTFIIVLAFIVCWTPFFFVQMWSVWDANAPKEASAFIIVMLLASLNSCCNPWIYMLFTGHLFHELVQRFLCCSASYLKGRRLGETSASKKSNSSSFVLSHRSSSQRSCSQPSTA
Test: IP3 accumulation assay
METRIC NAME: EC50 (nM)
State just the number; it will be interpreted in nM.

The molecule listed as Cc1cc(C(=O)N2Cc3cnn(C)c3Nc3ccccc32)ccc1CNC(=O)N1CCC[C@H]1C(=S)N1CCCN(C)CC1 [TC-OT-39] shows EC50 equal to 890
